assayed.system: cIAP1-BIR3 (Homo sapiens (Human))
Sequence (Q13490 253-363): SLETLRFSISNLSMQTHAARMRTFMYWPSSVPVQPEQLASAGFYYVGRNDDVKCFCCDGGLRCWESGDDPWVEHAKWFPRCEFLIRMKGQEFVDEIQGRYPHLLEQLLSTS
measurement.description: BIR binding assay (FRET competition), cIAP1 BIR3
setup.conditions: fold separation (FS) for cIAP1

[
  {
    "molecular.string": "C[C@@H]1CN(CC(=O)N2CC(C)(C)c3[nH]c(=O)c(Cc4ccc(F)cc4)cc32)[C@@H](CN2CCC[C@H](NC(=O)CCCCCCCCCCCCC(=O)N[C@H]3CCCN(C[C@H]4CN[C@H](C)CN4CC(=O)N4CC(C)(C)c5[nH]c(=O)c(Cc6ccc(F)cc6)cc54)C3)C2)CN1",
    "cIAP1 BIR3 vs BIR2 separation window": "+++ (10,000>FS>1,000)"
  },
  {
    "molecular.string": "C[C@@H]1CN(CC(=O)N2CC(C)(C)c3[nH]c(=O)c(Cc4ccc(F)cc4)cc32)[C@@H](CN2CCC(CCN(C)C(=O)c3ccc(C(=O)N(C)CCC4CCN(C[C@H]5CN[C@H](C)CN5CC(=O)N5CC(C)(C)c6[nH]c(=O)c(Cc7ccc(F)cc7)cc65)CC4)cc3)CC2)CN1",
    "cIAP1 BIR3 vs BIR2 separation window": "+++ (10,000>FS>1,000)"
  },
  {
    "molecular.string": "C[C@@H]1CN(CC(=O)N2CC(C)(C)c3[nH]c(=O)c(Cc4ccc(F)cc4)cc32)[C@@H](CN2CCO[C@H](COc3ccc(Cl)c(OC[C@@H]4CN(C[C@H]5CN[C@H](C)CN5CC(=O)N5CC(C)(C)c6[nH]c(=O)c(Cc7ccc(F)cc7)cc65)CCO4)c3)C2)CN1",
    "cIAP1 BIR3 vs BIR2 separation window": "+++ (10,000>FS>1,000)"
  }
]
